Molecular target: T1, recombinant human α5β1 integrin (rh-α5β1) (Homo sapiens, UniProt P05556+P08648)
T1 construct: purchased R&D Systems 3230-A5
T1 sequence (P08648 42-894 limits assumed): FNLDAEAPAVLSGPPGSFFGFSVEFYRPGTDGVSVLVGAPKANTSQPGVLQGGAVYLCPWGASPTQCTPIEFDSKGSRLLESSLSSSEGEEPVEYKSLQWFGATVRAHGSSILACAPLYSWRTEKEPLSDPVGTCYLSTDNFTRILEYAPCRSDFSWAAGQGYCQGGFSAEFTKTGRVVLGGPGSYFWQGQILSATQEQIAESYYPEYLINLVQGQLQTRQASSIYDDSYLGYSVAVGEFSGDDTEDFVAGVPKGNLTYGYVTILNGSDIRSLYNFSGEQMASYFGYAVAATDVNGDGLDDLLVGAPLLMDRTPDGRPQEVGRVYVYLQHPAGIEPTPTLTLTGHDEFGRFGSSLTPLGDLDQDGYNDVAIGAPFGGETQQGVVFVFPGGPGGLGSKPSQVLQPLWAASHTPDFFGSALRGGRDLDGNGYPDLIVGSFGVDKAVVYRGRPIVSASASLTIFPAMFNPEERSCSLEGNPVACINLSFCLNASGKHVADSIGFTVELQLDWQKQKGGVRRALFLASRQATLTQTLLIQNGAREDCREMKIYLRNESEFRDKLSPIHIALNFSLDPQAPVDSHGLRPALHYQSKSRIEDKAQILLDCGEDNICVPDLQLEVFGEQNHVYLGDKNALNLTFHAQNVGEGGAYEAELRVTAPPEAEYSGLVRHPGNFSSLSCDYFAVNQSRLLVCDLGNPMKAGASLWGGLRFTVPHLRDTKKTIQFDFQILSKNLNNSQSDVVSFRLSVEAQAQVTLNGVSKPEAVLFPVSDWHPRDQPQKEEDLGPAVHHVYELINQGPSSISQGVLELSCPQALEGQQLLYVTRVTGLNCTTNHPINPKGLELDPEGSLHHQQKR
T1 sequence (P08648 895-995 limits assumed): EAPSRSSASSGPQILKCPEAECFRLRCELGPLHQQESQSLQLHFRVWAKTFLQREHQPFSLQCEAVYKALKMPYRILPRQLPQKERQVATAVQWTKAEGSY
T1 sequence (P05556 21-728 limits assumed): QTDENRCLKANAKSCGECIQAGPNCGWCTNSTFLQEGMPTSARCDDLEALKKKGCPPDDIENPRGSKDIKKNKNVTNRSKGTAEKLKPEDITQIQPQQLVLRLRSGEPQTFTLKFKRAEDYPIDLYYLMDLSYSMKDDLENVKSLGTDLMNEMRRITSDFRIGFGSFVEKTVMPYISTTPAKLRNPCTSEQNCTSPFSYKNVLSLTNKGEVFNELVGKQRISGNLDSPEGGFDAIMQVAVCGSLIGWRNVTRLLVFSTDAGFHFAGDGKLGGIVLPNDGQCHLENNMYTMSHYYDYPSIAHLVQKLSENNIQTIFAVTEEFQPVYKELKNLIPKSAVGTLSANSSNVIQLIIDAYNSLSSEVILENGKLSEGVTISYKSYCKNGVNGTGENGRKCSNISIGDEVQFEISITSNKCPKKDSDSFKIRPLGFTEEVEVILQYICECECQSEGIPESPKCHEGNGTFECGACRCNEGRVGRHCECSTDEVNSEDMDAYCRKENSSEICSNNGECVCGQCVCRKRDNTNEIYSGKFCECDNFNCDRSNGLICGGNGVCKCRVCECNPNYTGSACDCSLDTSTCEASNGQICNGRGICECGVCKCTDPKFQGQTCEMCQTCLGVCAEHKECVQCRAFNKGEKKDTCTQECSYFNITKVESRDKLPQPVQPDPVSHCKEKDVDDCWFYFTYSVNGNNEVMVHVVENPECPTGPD
Experiment: Plate-based ELISA reactivity to rh-α5β1
Assay type: binding
Conditions: selected for further characterization among α5 specific hybridomas (28 selected)
Description: The 249 positive hybridoma supernatants selected as described in Example 1 were screened for reactivity to rh-α5β1 in a plate-based ELISA. Immulon4 HBX ELISA 96-well plates (Thermo Fisher Scientific, Waltham, MA, cat. no. 3855) were coated with rh-α5β1 (R&D Systems, Minneapolis, MN 55413, cat. no. 3230-A5), at 1 μg/mL in PBS supplemented with 0.5 mM MgCl2, MnCl2 and CaCl2 and incubated overnight at 4° C. […] Absorbance 450 nm was measured.
measurement_name: Selected Human α5 Specific

The following molecules have reported results that may help.
molecule	Selected Human α5 Specific
A2-7F01: anti-α5β1 antibody, VH SEQ ID NO:91, VL SEQ ID NO:92 (antibody, V domains shown, A2-7F01 VH Sequence; A2-7F01 VL Sequence) VH: QVQLQQPGAELVKPGASVKLSCKASGYTFTIYWINWVKQRPGQGLEWIGNIYPGSSSTNYNEKFKTKATLTVDTSSSTAYMQLSSLTSDDSAVYYCAITGTGGFAYWGQGTLVTVSA VL: ENVLTQSPAIMSASLGEKVTMSCRASSSVNYMYWYQQKSDASPKLWIYFTSSLAPGVPTRFSGSGSGNSFSLTISSMEGEDAATYYCQQLTGSPFTFGSGTRLEIK	Yes
A2-5D10: anti-α5β1 antibody, VH SEQ ID NO:51, VL SEQ ID NO:52 (antibody, V domains shown, A2-5D10 VH Sequence; A2-5D10 VL Sequence) VH: QVQLKESGPGLVAPSQSLSITCTISGFSLTSYGVHWVRQPPGKGLEWLVVIWSDGSTTYNSTLKSRLSISKDNSKSQVFLKMNSLQTDDTAMYYCARHYDYDGDWFAYWGQGTLVTVSA VL: QILLTQSPAIMSASLGERVTMTCTASSSVSSRCLHWYQQKPGSSPKLWIYSTSNLASGVPARFRGSGSGTSYSLTISSMEAEDAATYYCHQYYRSPPTFGGGTKLEIK	Yes
A2-7A05: anti-α5β1 antibody, VH SEQ ID NO:77, VL SEQ ID NO:78; tested as mouse hybridoma antibody and as human IgG4 chimera (antibody, V domains shown, A2-7A05 VH Sequence; A2-7A05 VL Sequence, tested as mouse hybridoma antibody and as human IgG4 chimera) VH: QVQLQQPGAELVKPGASVKLSCKASGYTFTIYWINWVKQRPGQGLEWIGKIYPGSISTDYNEKFKSKATLTVDTSSSTAYMQLSSLTSDDSAVYYCAITGTGGLAYWGQGTLVTVSA VL: ENVLTQSPAIMSASLGEKVTMTCRASSSVNYMYWYQQKSDASPKLWIYFTSSLAPGVPGRFSGSGSGNSYSLTISTMEGEDAATYYCQQFTTSPFTFGSGTKLEIK	Yes
A2-3B06: anti-α5β1 antibody, VH SEQ ID NO:42, VL SEQ ID NO:43 (antibody, V domains shown, A2-3B06 VH Sequence; A2-3B06 VL Sequence) VH: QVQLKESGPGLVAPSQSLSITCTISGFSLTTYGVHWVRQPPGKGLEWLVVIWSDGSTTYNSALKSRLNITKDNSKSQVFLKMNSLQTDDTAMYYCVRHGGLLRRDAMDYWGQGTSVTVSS VL: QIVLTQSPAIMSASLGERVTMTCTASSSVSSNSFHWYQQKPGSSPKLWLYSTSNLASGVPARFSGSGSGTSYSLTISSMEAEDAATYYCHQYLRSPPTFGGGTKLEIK	Yes
A2-8H11: hybridoma clone positive on K562 cells (antibody, V domains shown) VH: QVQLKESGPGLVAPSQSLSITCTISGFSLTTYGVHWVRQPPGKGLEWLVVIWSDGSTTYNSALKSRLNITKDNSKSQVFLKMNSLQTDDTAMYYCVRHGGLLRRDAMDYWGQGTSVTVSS VL: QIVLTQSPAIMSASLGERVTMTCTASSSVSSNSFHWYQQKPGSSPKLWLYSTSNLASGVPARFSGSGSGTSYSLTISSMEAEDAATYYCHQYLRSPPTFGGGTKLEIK	Yes

Attention now turns to another entry.
Read the entry A2-6C10: hybridoma clone positive on K562 cells (antibody, V domains shown) VH: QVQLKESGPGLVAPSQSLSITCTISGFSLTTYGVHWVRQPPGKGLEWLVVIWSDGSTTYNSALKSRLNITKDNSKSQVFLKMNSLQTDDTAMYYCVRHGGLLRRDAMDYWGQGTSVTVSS VL: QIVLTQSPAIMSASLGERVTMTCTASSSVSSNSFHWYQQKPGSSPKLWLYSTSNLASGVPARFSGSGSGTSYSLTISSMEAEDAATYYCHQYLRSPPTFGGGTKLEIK and write its reported Selected Human α5 Specific.
Yes
